# Tested on: SK-MEL-28 melanoma
# test-description: NCI-60 one-dose screen, 48 h (100 = growth as untreated, 0 = no growth, -100 = all killed)
# settings: 10 µM unless noted
Compounds without any hit were thinned out: in the full panel of roughly 83,000, 20% have a hit. The source made the active and inactive calls. How the source made its calls: active means growth percent below 10; inactive means the rest.
growth: recorded values

Study these solved cases before continuing.
> print(dat)
                                   compound  observed.property         measured
1  Cc1cc2nc3c4cc([N+](=O)[O-])ccc4n(CCN(C)C)c3nc2cc1C             growth   2.33% (active)
2  CCN(CC)CCOc1ccc(NC(=O)C(C(C)C)N2C(=O)/C(=C/c3ccc(Br)cc3)SC2=S)cc1 (stereo not given)             growth   89% (inactive)
3           N#C/C(=C\c1cccc(C#N)c1)c1ccccc1             growth  115% (inactive)

Exercise: Endpoint output: growth of `O=C(Cn1c[n+](CC(=O)c2ccc(-c3ccccc3)cc2)c2ccccc21)Nc1cccc2cccnc12` . Value?
Key: 21.2% (inactive)

Exercise: Dear colleague, I am looking for the recorded growth of the following compound: O=C(/C(=C\c1ccc([N+](=O)[O-])cc1)S(=O)Cc1ccc(Cl)cc1)c1ccc(Cl)cc1 (stereo not given)
Key: 86.8% (inactive)
